target or test system: aggregated beta-amyloid; human Aβ 1-42 (UniProtKB-P05067, a.a. 672-713) (Homo sapiens, UniProt P05067)
Construct: UniProtKB-P05067, a.a; 672-713
Sequence (P05067 672-713): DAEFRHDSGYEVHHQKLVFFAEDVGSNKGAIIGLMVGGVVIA
protocol details: Beta-amyloid aggregate degradation test (thioflavin T assay)
Type: biochemical
settings: 50 uM test compound; pre-aggregated Aβ, further 3 days at 37° C.; ThT fluorescence vs control = 100%
// reported Beta-amyloid aggregate degradation activity (% of control) per item
test readout: Beta-amyloid aggregate degradation activity (% of control)

compound: O=C1NC(=O)C(Cc2cnc3ccccc3c2)S1 (stereo not drawn)
reported result: 88.64 % of control

compound: O=C1NC(=S)S/C1=C\c1csc2ccccc12
reported result: 95.08 % of control

compound: O=C1NC(=S)S/C1=C\c1ccc2occc2c1
reported result: 95.14 % of control

compound: CN1C(=O)N/C(=C\c2c[nH]c3cccnc23)C1=O
reported result: 86.89 % of control

compound: CCN1C(=O)/C(=C/c2c[nH]c3ccncc23)SC1=S
reported result: 51.31 % of control

compound: CCN1C(=O)/C(=C/c2c[nH]c3cccnc23)SC1=S
reported result: 85.76 % of control

compound: O=C1NC(=S)SC1Cc1c[nH]c2ncccc12 (stereo not drawn)
reported result: 97.47 % of control

compound: CCN1C(=O)/C(=C/c2ccoc2)NC1=S
reported result: 58.02 % of control

compound: O=C1NC(=S)S/C1=C\c1c[nH]c2ccccc12
reported result: 68.90 % of control
